Catalogue of Percent Effect values
# SYSTEM_TESTED: Tyrosyl-tRNA synthetase, putative (Trypanosoma cruzi (strain CL Brener)) (UniProt Q4DSP6)
# Sequence (Q4DSP6 as listed by the source): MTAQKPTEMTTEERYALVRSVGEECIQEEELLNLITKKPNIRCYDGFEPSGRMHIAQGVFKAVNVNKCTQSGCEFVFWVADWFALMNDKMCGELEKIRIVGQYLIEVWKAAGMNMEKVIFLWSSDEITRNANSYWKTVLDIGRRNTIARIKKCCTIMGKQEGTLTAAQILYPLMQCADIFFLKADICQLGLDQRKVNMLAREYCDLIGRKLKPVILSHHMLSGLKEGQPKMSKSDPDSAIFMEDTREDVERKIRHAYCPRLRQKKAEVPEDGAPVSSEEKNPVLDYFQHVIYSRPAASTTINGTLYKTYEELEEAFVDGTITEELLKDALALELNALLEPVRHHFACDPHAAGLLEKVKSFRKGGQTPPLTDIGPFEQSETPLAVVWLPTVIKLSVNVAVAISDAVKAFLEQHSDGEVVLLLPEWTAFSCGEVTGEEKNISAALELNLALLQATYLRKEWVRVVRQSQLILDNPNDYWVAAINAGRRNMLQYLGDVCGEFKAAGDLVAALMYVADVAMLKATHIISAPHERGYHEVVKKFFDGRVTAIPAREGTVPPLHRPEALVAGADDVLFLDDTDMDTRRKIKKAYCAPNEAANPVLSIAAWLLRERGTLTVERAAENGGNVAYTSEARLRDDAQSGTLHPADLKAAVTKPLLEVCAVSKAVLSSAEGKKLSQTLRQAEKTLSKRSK
# TEST_NAME: Trypanosoma cruzi tyrosyl tRNA synthetase (TcYRS) _High Tyrosine SOP
# Type: functional
# Design: scale not given: in the data most compounds retested in dose-response had high values
# RUN_CONDITIONS: 30 µM
Please respond with the number in % and leave the unit unwritten.

Reference set, count: 4
MOLECULE	Percent Effect (%)
CC(C)CNC(=O)Nc1ccc(CN2CCOC2=O)cc1	-7.37
COc1ncc(C2(O)CCN(Cc3c(F)cccc3F)CC2)c(OC)n1	2.12
Cc1cccnc1CN(C)CC1(O)CCCN(CC2CCCCC2)C1=O (stereo not drawn)	13.3
Cc1cc(NC(=O)CN2CCCC2c2noc(C(C)C)n2)n(C)n1 (stereo not drawn)	2.63

Recorded Percent Effect for CNc1cc(CCNC(=O)c2cccnc2)nc(-c2ccncc2)n1 on Tyrosyl-tRNA synthetase, putative (Trypanosoma cruzi (strain CL Brener)) (UniProt Q4DSP6) was 4.3

Recorded Percent Effect for Cc1noc(C)c1C(=O)NCc1ccnc(OCC(F)(F)F)c1 on Tyrosyl-tRNA synthetase, putative (Trypanosoma cruzi (strain CL Brener)) (UniProt Q4DSP6) was 7.35

Recorded Percent Effect for CN1CCN(C2CCN(CC(=O)NCC(F)(F)F)CC2)C1=O on Tyrosyl-tRNA synthetase, putative (Trypanosoma cruzi (strain CL Brener)) (UniProt Q4DSP6) was 3.45

Recorded Percent Effect for CC(C)c1ncc(S(C)(=O)=O)c(C2CCCNC2)n1 (stereo not drawn) on Tyrosyl-tRNA synthetase, putative (Trypanosoma cruzi (strain CL Brener)) (UniProt Q4DSP6) was 6.92

Recorded Percent Effect for CCn1nc2c(cc1=O)CN(Cc1nc(CCOC)no1)CC2 on Tyrosyl-tRNA synthetase, putative (Trypanosoma cruzi (strain CL Brener)) (UniProt Q4DSP6) was 0.478
